Reported Ki values for the following molecules.
Target: α1B adrenoceptors (Rattus norvegicus)
Construct: from tissue; host or cells: rat liver membranes
Sequence (P15823 whole entry): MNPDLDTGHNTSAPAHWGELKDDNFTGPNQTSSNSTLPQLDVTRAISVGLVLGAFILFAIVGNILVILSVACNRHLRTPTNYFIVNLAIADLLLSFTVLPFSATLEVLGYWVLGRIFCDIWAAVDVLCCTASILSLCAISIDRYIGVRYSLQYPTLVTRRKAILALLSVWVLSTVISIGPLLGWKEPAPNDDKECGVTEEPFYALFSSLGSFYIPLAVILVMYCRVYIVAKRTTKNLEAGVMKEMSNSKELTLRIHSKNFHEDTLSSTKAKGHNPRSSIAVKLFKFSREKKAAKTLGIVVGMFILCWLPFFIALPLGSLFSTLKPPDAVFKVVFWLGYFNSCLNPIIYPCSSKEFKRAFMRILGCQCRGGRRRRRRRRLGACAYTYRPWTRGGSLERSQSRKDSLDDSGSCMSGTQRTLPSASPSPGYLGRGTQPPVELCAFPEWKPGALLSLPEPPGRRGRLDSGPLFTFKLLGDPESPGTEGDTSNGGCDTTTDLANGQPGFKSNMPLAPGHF
Assay: Binding of [3H]-prazosin to α1B adrenoceptors (rat liver membranes)
Settings: Table 5; Cheng-Prusoff; read-out: α1B Ki

Worked cases, answers included:
CCCCN1CCN(c2ccccc2OC)CC1 [LDT 64] = 393 nM
CCOc1ccccc1N1CCN(CC)CC1 [LDT 69] = 185 nM

Fill in: Ki of CCN1CCN(c2ccccc2OC)CC1 [LDT 62] is ___
448 nM

Look up Ki: CCN1CCN(c2ccccc2O)CC1 [LDT 70]
715 nM

====

Target: α1A adrenoceptors (Oryctolagus cuniculus, UniProt O02824)
Construct: from tissue; host or cells: rabbit liver membranes
Sequence (O02824 whole entry): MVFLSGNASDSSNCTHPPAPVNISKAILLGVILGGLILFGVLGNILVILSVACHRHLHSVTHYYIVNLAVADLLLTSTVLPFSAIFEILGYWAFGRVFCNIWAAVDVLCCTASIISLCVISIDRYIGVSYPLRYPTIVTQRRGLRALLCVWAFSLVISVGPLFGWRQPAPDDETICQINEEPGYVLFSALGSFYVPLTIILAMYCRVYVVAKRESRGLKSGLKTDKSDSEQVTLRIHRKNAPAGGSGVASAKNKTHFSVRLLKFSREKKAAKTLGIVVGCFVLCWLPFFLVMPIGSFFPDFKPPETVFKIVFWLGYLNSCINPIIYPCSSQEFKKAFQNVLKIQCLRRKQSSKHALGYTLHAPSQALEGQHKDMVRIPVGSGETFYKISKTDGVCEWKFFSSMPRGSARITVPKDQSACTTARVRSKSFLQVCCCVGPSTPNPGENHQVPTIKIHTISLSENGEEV
Assay: Binding of [3H]-prazosin to α1A adrenoceptors (rabbit liver membranes)
Conditions: Table 5
Below, each of the compounds is paired with its reported α1A log IC50 (M) value.
A number alone suffices; assume M.

Solved entries (count: 2):
CCN1CCN(c2ccccc2O)CC1 [LDT 70] = −6.45
CCCCN1CCN(c2ccccc2OC)CC1 [LDT 64] = −6.84

Kindly consider the entry below.
Please look up its α1A log IC50 (M): CCCN1CCN(c2ccccc2OC)CC1 [LDT 63]
−6.50

====

Molecular target: 5-HT1A receptors (Rattus norvegicus, UniProt P19327)
Construct: Intrinsic Activity at Native 5-HT1A Receptors; from tissue; host or cells: rat hippocampus membranes
Sequence (P19327 1-422): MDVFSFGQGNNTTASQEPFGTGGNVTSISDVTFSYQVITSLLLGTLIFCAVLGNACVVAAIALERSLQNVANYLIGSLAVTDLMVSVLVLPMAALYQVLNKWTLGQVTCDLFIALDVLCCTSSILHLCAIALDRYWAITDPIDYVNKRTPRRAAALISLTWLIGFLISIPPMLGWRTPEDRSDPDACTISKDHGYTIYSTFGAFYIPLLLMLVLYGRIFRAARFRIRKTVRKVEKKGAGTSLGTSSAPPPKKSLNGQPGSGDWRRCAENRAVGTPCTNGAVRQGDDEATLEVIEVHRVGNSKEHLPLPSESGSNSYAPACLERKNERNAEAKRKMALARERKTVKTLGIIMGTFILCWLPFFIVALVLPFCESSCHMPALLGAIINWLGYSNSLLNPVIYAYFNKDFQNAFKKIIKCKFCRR
Assay: Binding of [3H]-8-OH-DPAT to 5-HT1A receptors (rat hippocampus membranes)
Conditions: Ki (nM), Table 8; Cheng-Prusoff
Method: Membrane preparations of rat hippocampus according to previously described by HALL et al (1985) and PEROUTKA (1986) were performed. […] After the incubation period, the reaction was stopped by adding 4 ml of ice-cold solution containing 5 mM Tris (pH 7.4), followed by vacuum filtration on glass fiber filter (GMF 3, Filtrak®) previously soaked with solution 0.5% polyethylenoimine. […] The radioactivity retained on the filters was then determined in a liquid scintillation counter (Packard Tri-Carb 1600 TR). […]
VALUE_KIND: Ki (nM)
Please give a number only; it is taken to be in nM.

Which Ki is listed for CCCCCN1CCN(c2ccccc2OC)CC1 [LDT 65] ?
18

====

Molecular target: 5-HT2A receptors (Rattus norvegicus, UniProt P14842)
Construct: from tissue; host or cells: rat cortex membranes
Sequence (P14842 whole entry): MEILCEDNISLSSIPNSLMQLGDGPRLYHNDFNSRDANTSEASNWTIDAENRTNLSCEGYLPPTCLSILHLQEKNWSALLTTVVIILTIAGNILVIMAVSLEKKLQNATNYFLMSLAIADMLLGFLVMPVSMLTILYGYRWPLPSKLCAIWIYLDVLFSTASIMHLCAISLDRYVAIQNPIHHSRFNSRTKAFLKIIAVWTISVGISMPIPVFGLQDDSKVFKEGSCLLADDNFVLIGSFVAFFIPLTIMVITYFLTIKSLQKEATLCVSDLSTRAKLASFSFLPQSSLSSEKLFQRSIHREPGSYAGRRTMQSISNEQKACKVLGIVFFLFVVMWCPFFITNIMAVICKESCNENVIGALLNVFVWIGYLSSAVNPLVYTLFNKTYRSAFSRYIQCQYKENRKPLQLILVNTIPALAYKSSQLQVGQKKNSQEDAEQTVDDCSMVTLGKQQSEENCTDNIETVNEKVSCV
Experiment: [3H]-ketanserin binding to 5-HT2A receptors (rat cortex membranes)
Settings: Table 11
VALUE_KIND: log IC50 (M)
Reply numerically in M, unit not repeated.

Worked cases, answers included:
CCOc1ccccc1N1CCN(CC)CC1 [LDT 69] = −5.02
CCN1CCN(c2ccccc2OC)CC1 [LDT 62] = −5.00
CCN1CCN(c2ccccc2)CC1 [LDT 39] = −5.16
CCCCN1CCN(c2ccccc2OC)CC1 [LDT 64] = −5.06

# ---- query compound ----
State the recorded log IC50 (M) for this entry: CCCN1CCN(c2ccccc2OC)CC1 [LDT 63]
−4.86

====

Target: α1B adrenoceptors (Rattus norvegicus)
Construct: from tissue; host or cells: rat liver membranes
Assay: Binding of [3H]-prazosin to α1B adrenoceptors (rat liver membranes)
Settings: Table 4; Cheng-Prusoff; read-out: Ki
Entries and their Ki

COc1ccccc1N1CCN(CCC2CCCCC2)CC1 = 154 nM

Kindly review the next compound as well.
Value lookup for Ki; key = COc1ccc(CCN2CCN(c3ccccc3OC)CC2)cc1OC
12.2 nM

====

Target: α1A adrenoceptors (Oryctolagus cuniculus, UniProt O02824)
Construct: from tissue; host or cells: rabbit liver membranes
Test: Binding of [3H]-prazosin to α1A adrenoceptors (rabbit liver membranes)
Conditions: Table 5
VALUE_KIND: α1A log IC50 (M)

Guide cases for α1A log IC50 (M), answers given:
CCN1CCN(c2ccccc2)CC1 = −6.36 ± 0.21 M
CCN1CCN(c2ccccc2OC)CC1 = −6.51 ± 0.2 M

Report α1A log IC50 (M) for CCOc1ccccc1N1CCN(CC)CC1 please.
−7.41 ± 0.25 a M

====

Biological target: α1D adrenoceptors (Rattus norvegicus)
Construct: the rat thoracic aorta corresponds to a tissue expressing mainly α1D-adrenoceptors; from tissue; host or cells: rat thoracic aorta rings
Test: Phenylephrine-induced contraction inhibition in rat aorta (isometric contraction, Schild KB)
Assay type: cell-based
Conditions: Table 2; phenylephrine curve in presence of LTD 50 nM (62-69)
# cutoff -6 M applies to log CE50 ± EPM (M) LDT; >= gives YES, < gives NO

Illustrative cases are given below, each with its answer.
CCCN1CCN(c2ccccc2OC)CC1 [LDT 63] = NO
CCCCCCCCN1CCN(c2ccccc2OC)CC1 [LDT 68] = YES
CCCCCCCN1CCN(c2ccccc2OC)CC1 [LDT 67] = YES

Test whether the molecule CCCCCCN1CCN(c2ccccc2OC)CC1 [LDT 66] records log CE50 ± EPM (M) LDT of -6 M or higher.
YES

====

Here the recorded log KB ± EPM (M) is given for each entry.
Target: α1D adrenoceptors (Rattus norvegicus, UniProt P23944)
Construct: the rat thoracic aorta corresponds to a tissue expressing mainly α1D-adrenoceptors; from tissue; host or cells: rat thoracic aorta rings
Sequence (P23944 whole entry): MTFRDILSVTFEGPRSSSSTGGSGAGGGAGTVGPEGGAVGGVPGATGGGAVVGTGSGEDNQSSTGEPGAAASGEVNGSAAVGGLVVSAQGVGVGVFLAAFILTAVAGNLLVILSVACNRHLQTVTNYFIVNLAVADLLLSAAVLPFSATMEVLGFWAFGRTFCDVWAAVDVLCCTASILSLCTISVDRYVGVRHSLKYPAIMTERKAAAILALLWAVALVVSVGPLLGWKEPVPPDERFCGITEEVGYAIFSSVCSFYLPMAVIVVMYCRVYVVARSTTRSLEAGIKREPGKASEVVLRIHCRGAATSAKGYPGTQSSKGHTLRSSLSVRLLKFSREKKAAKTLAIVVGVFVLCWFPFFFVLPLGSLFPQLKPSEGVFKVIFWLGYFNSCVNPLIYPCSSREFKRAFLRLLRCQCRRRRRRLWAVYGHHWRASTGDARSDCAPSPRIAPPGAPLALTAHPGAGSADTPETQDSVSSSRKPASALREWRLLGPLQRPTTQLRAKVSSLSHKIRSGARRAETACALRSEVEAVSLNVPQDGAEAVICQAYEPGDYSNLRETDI
Assay: Phenylephrine-induced contraction inhibition in rat aorta (isometric contraction, Schild KB)
Format: cell-based
Conditions: Table 2; Schild equation; 50 nM (62-69) or 10 nM (70, 39)
I only need the number, in M, no unit after it.

Known log KB ± EPM (M) results, listed for orientation:
CCOc1ccccc1N1CCN(CC)CC1 = −8.06
CCCCN1CCN(c2ccccc2OC)CC1 = −7.93

I would be grateful if you could share the reported log KB ± EPM (M) for CCN1CCN(c2ccccc2OC)CC1 .
−8.08

Consider the molecule CCCCCCCCN1CCN(c2ccccc2OC)CC1 and give its measured log KB ± EPM (M).
−8.36

====

Target: 5-HT1A receptors (Rattus norvegicus, UniProt P19327)
Construct: Intrinsic Activity at Native 5-HT1A Receptors; from tissue; host or cells: rat hippocampus membranes
Sequence (P19327 1-422): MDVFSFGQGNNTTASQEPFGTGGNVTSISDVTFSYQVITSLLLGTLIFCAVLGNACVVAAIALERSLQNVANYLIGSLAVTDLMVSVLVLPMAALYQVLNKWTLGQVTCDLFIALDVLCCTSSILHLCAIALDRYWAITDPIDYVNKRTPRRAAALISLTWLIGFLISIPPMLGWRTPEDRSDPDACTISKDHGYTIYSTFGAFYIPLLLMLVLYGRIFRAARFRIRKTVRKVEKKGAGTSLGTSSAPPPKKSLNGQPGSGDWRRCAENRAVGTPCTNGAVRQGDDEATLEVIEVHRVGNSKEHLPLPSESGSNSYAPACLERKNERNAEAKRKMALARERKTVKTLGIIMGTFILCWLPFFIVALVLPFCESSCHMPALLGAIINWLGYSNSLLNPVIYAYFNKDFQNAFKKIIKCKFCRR
Assay: Binding of [3H]-8-OH-DPAT to 5-HT1A receptors (rat hippocampus membranes)
Conditions: Table 8
log IC50 (M) values for the compounds below.
Please state the figure in M; there is no need to write the unit.

Solved entries:
CCOc1ccccc1N1CCN(CC)CC1 = −6.86
CCN1CCN(c2ccccc2O)CC1 = −6.15
CCCN1CCN(c2ccccc2OC)CC1 = −6.37
CCN1CCN(c2ccccc2)CC1 = −5.93
CCCCN1CCN(c2ccccc2OC)CC1 = −6.72

What log IC50 (M) value was documented for this compound, CCN1CCN(c2ccccc2OC)CC1 ?
−6.47

====

Target: 5-HT2A receptors (Rattus norvegicus)
Construct: from tissue; host or cells: rat cortex membranes
Assay: [3H]-ketanserin binding to 5-HT2A receptors (rat cortex membranes)
VALUE_KIND: Ki (nM)
Value expressed in nM; do not type the unit.

COc1ccccc1N1CCN(CCc2ccccc2)CC1 = 47.4
COc1cccc(CCN2CCN(c3ccccc3OC)CC2)c1 = 45.2
COc1ccc(CCN2CCN(c3ccccc3OC)CC2)cc1OC = 248

Requested read-out: Ki. Entry: CCCCCN1CCN(c2ccccc2OC)CC1
2930

Which Ki is listed for COc1ccc(CCN2CCN(c3ccccc3OC)CC2)cc1 ?
44.2
